For each entry below, report its growth value.
# Tested on: SNB-19 CNS
# Assay overview: NCI-60 one-dose screen, 48 h (100 = growth as untreated, 0 = no growth, -100 = all killed)
# Conditions: 10 µM unless noted
# Protocol: Growth inhibition of the SNB-19 human tumor cell line is measured as a screen for anti-cancer activity. Cells are grown in 96 well plates and exposed to the test compound for 48 hours. Compounds are tested at a single concentration, which is 10^-5 M for most compounds. The reported endpoint is percent growth (GI% or GIPRCNT), where numbers from 0 - 100% represent growth inhibition, and numbers from -100% - 0 represent cell death. For example, a value of 40 represents 60% growth inhibition. […]
This is part of a sample that, as a whole, favours compounds with a hit. Of some 83,000 tested, about 20% had one in any assay.
One number for each entry, in %.

{"Smiles entry": "c1ccc(Sc2ncccn2)nc1", "Measurement units": "%", "growth": 89.9}
{"Smiles entry": "CC(=O)Oc1c2c(nc3c1c1ccccc1n3Cc1ccccc1)-c1ccccc1C2", "Measurement units": "%", "growth": 96.7}
{"Smiles entry": "COC(=O)/C=C1\\SC(=Nc2ccc(F)cc2)N(CCc2c[nH]c3ccccc23)C1=O", "Measurement units": "%", "growth": 103}
{"Smiles entry": "NC[C@@H]1CCN(c2cc3c(cc2F)c(=O)n(N)c(=O)n3Cc2ccc(-c3ccccc3)cc2)C1", "Measurement units": "%", "growth": 102}

## Task growth for N#C/C(=C/c1ccc(O)c([N+](=O)[O-])c1)c1nc(-c2ccc([N+](=O)[O-])cc2)cs1 ?
## Result 34.5

---

Provide the recorded growth for the entries that follow.
# Tested on: HOP-92 NSCLC
# Assay overview: NCI-60 one-dose screen, 48 h (100 = growth as untreated, 0 = no growth, -100 = all killed)
# Conditions: 10 µM unless noted
Compounds without any hit were thinned out: in the full panel of roughly 83,000, 20% have a hit.
One number for each entry, in %.

Example entries begin here.
{"Molecule": "C/C(=C\\c1cnc(C)s1)[C@@H]1C[C@@H]2O[C@@H]2CCC[C@H](C)[C@H](O)[C@@H](C)C(=O)C(C)(C)[C@@H](O)CC(=O)O1", "Value kind": "growth", "Measurement units": "%", "Number": 52.6}
{"Molecule": "COc1cc2c(cc1OC)C(Sc1ccc(Cl)cc1)c1c(nc(N)c(C#N)c1N)O2 (centres undefined)", "Value kind": "growth", "Measurement units": "%", "Number": 20.1}
{"Molecule": "CC1CCN(CCCCCOc2ccc3oc4cc(Cl)ccc4c(=O)c3c2)CC1", "Value kind": "growth", "Measurement units": "%", "Number": 93.6}

We next turn to a different molecule, shown below.
## Task Which growth reading was recorded for the molecule COC(=O)/C=C/c1cc(OC(C)=O)c2c(c1)C(C(=O)OC)C(c1ccc(OC(C)=O)c(OC(C)=O)c1)O2 (centres undefined) ?
## Result 33.7

---

# Tested on: OVCAR-4 ovarian
# Assay overview: NCI-60 one-dose screen, 48 h (100 = growth as untreated, 0 = no growth, -100 = all killed)
# Conditions: 10 µM unless noted
This is part of a sample that, as a whole, favours compounds with a hit. Of some 83,000 tested, about 20% had one in any assay.
Can you tell me growth for the items I'm about to list?
Numbers only, in %.

{"Compound": "CC[C@]12C=CCN3CC[C@@]4(c5cc(NC(=O)CCC(=O)O[C@H]6CC[C@H]7[C@@H]8CC[C@H]9CC(=O)CC[C@]9(C)[C@H]8CC[C@]67C)c(OC)cc5N(C)[C@H]4[C@@](O)(C(=O)OC)[C@@H]1OC(C)=O)[C@@H]32", "growth [%]": 60.7}
{"Compound": "CC(C)NS(=O)(=O)c1cccc(-c2ccc3c4c(n(CCCN(C)C)c(=O)c3c2)-c2ccccc2C4=O)c1", "growth [%]": 101}
{"Compound": "COc1cc(NCC(=O)Nc2cc(Nc3cccc(C(F)(F)F)c3)ncn2)c(Cl)c(OC)c1Cl", "growth [%]": 99.2}
{"Compound": "Cc1ccc(C2CC(c3ccc(Nc4nc(NCCO)nc(NCCO)n4)cc3)=NN2c2ccc(Cl)cc2)cc1 (configuration not stated)", "growth [%]": 63.9}
{"Compound": "CCN1CCN(c2ccc(NC(=O)Nc3nc4ccc(-c5ccccc5OC)cc4s3)cc2)CC1", "growth [%]": -76.1}
{"Compound": "COC1=CC2C=C(C3N(c4ccccc4)NC(=O)[C@@H]4CCCN34)C(=O)NC2C=C1 (some centres not stated)", "growth [%]": 96.8}

Dear colleague, could you please provide growth for the compounds listed below?
1. CCCCn1c(=O)c(/C=C/C(=O)/C=C/c2ccc(OC)cc2)cc2cc(Cl)ccc21
2. O=C(CCc1nnc2sc(OCc3ccccc3)nn12)c1nc2ccc([N+](=O)[O-])cc2[nH]1
3. CN(C)C(CNc1oc(-c2cccc3ccccc23)nc1C#N)c1ccco1 (configuration not stated)

## Result
[42.9, 102, 83.2]

Give measured growth for every item shown.
1. Cc1cc2ccccc2c[n+]1CC(=O)c1ccc(-c2ccccc2)cc1
2. COc1ccc(/C(=N\O)c2cc(C)c(OC)c(C)c2)cc1O
3. C=C(C)[C@@H]1CC[C@]2(C(=O)OCCOCCOCC[P+](c3ccccc3)(c3ccccc3)c3ccccc3)CC[C@]3(C)[C@H](CC[C@@H]4[C@@]5(C)CC[C@H](OC(C)=O)C(C)(C)[C@@H]5CC[C@]43C)[C@@H]12
4. Cc1c(Cl)cccc1NC(=O)c1sc2nc3c(cc2c1N)CCCCC3
5. C=C1C(=O)O[C@H]2[C@H]1CC/C(COC(=O)c1cccnc1N)=C\CC[C@@]1(C)O[C@@H]21
6. Nc1ccccc1NC(=O)c1ccc(CSc2nc(N3CCOCC3)c3cccn3n2)cc1
7. COc1c(O)cc2oc3cc(O[C@@H]4OC(C)[C@@H](O)[C@H](O)C4O)c(CC=C(C)C)c(O)c3c(=O)c2c1CC=C(C)C (some centres not stated)

## Result
1. 9.69
2. 67
3. -82.1
4. 59.2
5. 54.7
6. 42
7. 102

## Task I have this compound here, Cc1c(Br)cccc1NC(=O)c1sc2nc3c(cc2c1N)CN(Cc1ccccc1)CC3 , and I need its recorded growth.
## Result 28.1

---

Provide the reported growth of each item.
# Test system: RXF 393 renal
# Assay overview: NCI-60 one-dose screen, 48 h (100 = growth as untreated, 0 = no growth, -100 = all killed)
# Conditions: 10 µM unless noted
Compounds without any hit were thinned out: in the full panel of roughly 83,000, 20% have a hit.
One number for each entry, in %.

{"Compound": "NC(=O)CN1C(=O)c2ccccc2C1=O", "growth / %": 114}
{"Compound": "Oc1ccccc1-c1nc2c3ccccc3c3ccccc3c2o1", "growth / %": 109}
{"Compound": "O=C(Nc1ccc(N=Cc2ccccc2O)cc1)NC1C=c2ccccc2=CC1 (stereo not given)", "growth / %": 108}
{"Compound": "C/C(=C\\c1cnc(C)s1)[C@@H]1C[C@@H]2O[C@@H]2CCC[C@H](C)[C@H](O)[C@@H](C)C(=O)C(C)(C)[C@@H](O)CC(=O)O1", "growth / %": 18.1}

In the following, a different compound is considered.
## Task Lab note: need growth with RXF 393 renal for entry COc1ccc2[nH]c(=O)c(/C=C/C(=O)/C=C/c3ccc(O)c(OC)c3)cc2c1 , please look it up.
## Result -76.7

---

Kindly state growth for each of the entries shown.
# Test system: SK-MEL-2 melanoma
# Assay overview: NCI-60 one-dose screen, 48 h (100 = growth as untreated, 0 = no growth, -100 = all killed)
# Conditions: 10 µM unless noted
Compounds without any hit were thinned out: in the full panel of roughly 83,000, 20% have a hit.
Answers are plain numbers, in %.

Here are 4 compounds together with their reported answers.
{"Compound": "c1ccc(-c2cn3ccnc3c(-c3ccc4c(c3)ncn4C3CCCCC3)n2)cc1", "Measurement units": "%", "growth": 106}
{"Compound": "Cc1[nH]c2ncnc(Oc3ccc(NC(=O)Nc4ccc(Cl)c(C(F)(F)F)c4)cc3)c2c1C", "Measurement units": "%", "growth": 61.2}
{"Compound": "CCCn1c2cc(OCc3cn(-c4ccc(Br)cc4)nn3)ccc2c2ccnc(C)c21", "Measurement units": "%", "growth": 70.6}
{"Compound": "Cc1cnc(SCc2ccc(Cl)cc2Cl)nc1Nc1ccc(Cl)c(Cl)c1", "Measurement units": "%", "growth": 87.9}

Give measured growth for every item shown.
1. N#CC1(C#N)C2=C(CCCC2)NC(c2c(F)cccc2Cl)C1(C#N)C#N (stereo not given)
2. C#Cc1cccc(Nc2ncnc3ccc(NC(=O)c4ccccc4)cc23)c1
3. Cc1nnc(/N=C2\NC(=O)/C(=C/c3ccc(N(C)C)cc3)S2)s1
4. O=C(/C(=C\c1c(-c2ccccc2)[nH]c2ccccc12)S(=O)(=O)c1ccccc1)c1ccccc1
5. CC(=O)c1cc2c(N)c(C(=O)Nc3ccccn3)sc2nc1C
6. Cc1cccc(C)c1NC(=O)CN(CC(C)C)CC(O)COc1ccccc1 (stereo not given)

## Result
[37.6, 85.3, 83.1, 35.8, 53.6, 93.8]

Ref: PubChem BioAssay (NCI)
